Measured IC50 by item
test system: IGROV-1; assay: Antiproliferative activity against human IGROV1 cells expressing human reduced folate carrier/folate receptor alpha after 96 hrs by celltiter-blue cell viability assay in presence of folic acid; settings: IGROV-1, 96 h

// recorded IC50 for Nc1nc2sc(CCc3ccc(C(=O)N[C@@H](CCC(=O)O)C(=O)O)cc3)cc2c(=O)[nH]1 : > 1000 nM

Form: compound = Nc1nc2sc(CCCCCc3ccc(C(=O)N[C@@H](CCC(=O)O)C(=O)O)cc3)cc2c(=O)[nH]1 ; IC50 = > 1000 nM

Per the record, Nc1nc2sc(CCCCCCCCc3ccc(C(=O)N[C@@H](CCC(=O)O)C(=O)O)cc3)cc2c(=O)[nH]1 has IC50 of > 1000 nM
